Molecular target: Human M4 (Homo sapiens)
Construct: expressed in transfected cells; host or cells: CHO-K1 (ATCC), co-transfected with chimeric G protein Gqi5
Sequence (P08173 1-479): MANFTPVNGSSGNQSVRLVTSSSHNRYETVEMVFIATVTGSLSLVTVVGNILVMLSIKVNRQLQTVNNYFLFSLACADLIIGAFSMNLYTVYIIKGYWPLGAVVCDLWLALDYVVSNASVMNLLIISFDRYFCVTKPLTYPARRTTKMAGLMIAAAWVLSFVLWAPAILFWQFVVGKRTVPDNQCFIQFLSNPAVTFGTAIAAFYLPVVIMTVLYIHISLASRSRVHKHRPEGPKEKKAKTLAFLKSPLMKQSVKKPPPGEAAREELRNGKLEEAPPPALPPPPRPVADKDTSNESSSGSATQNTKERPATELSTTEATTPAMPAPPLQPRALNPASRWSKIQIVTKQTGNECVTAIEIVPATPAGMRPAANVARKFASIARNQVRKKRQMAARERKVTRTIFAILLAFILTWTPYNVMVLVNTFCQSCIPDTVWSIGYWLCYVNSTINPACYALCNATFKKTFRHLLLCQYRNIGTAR
Assay: mAChR M4 cell-based functional assay (calcium flux, antagonism of EC80 acetylcholine response)
Details: M4/Gqi5/CHO-K1 cells; % ACh maximum at 30 μM; read-out: Human M4 Emin (% ACh maximum at 30 μM)
One threshold, 4%, splits the recorded remaining activity at 30 µM values: lower ones are met, equal or higher ones are not met.

Past entries and their recorded results:
>>> group("[2H]C([2H])([2H])NC(=O)c1ccccc1-c1ccc(N[C@H]2C[C@@H]3CN(CC4CCOCC4)C[C@@H]3C2)nn1")
"not met"
>>> group("O=C(NC1CC1)c1cccc(-c2ccc(N[C@H]3C[C@@H]4CN(CC5CCOCC5)C[C@@H]4C3)nn2)c1")
"met"
>>> group("CC(=O)Nc1ccc(-c2ccc(N[C@H]3C[C@@H]4CN(Cc5ccc6c(c5)OCO6)C[C@@H]4C3)nn2)cc1")
"met"
>>> group("CN(C)C(=O)c1cc(F)c(F)c(-c2ccc(N[C@H]3C[C@@H]4CN(CC5CCOCC5)C[C@@H]4C3)nn2)c1")
"not met"
>>> group("[2H]C([2H])(C1CCOCC1)N1C[C@H]2C[C@H](Nc3ccc(-c4ccc(C(=O)NCC)cc4)nn3)C[C@H]2C1")
"not met"
>>> group("[2H]C([2H])(C1CCOCC1)N1C[C@H]2C[C@H](Nc3ccc(-c4ccc(C(=O)NC)cc4)nn3)C[C@H]2C1 (single isomer, unassigned)")
"not met"

With those in mind, consider the next molecule.
Input line: Strictly below 4%: is that where remaining activity at 30 µM of [2H]C([2H])(C1CCOCC1)N1C[C@H]2C[C@H](Nc3ccc(-c4ccc(F)c(C(=O)NC)c4)nn3)C[C@H]2C1 sits?
Output line: not met

###

Target: Human M4 (Homo sapiens, UniProt P08173)
Construct: expressed in transfected cells; host or cells: CHO-K1 (ATCC), co-transfected with chimeric G protein Gqi5
Experiment: mAChR M4 cell-based functional assay (calcium flux, antagonism of EC80 acetylcholine response)
Conditions: M4/Gqi5/CHO-K1 cells; % ACh maximum at 30 μM; read-out: Human M4 Emin (% ACh maximum at 30 μM)
Procedure: Human or rat M4 cDNA, along with the chimeric G protein Gqi5, were transfected into Chinese hamster ovary (CHO-K1) cells purchased from the American Type Culture Collection using Lipofectamine2000. […] Calcium flux was measured using the Functional Drug Screening System (FDSS) 6000 or 7000 (Hamamatsu Corporation, Tokyo, Japan) as an increase in the fluorescent static ratio. […] Agonist activity was analyzed as a concentration-dependent increase in calcium mobilization upon compound addition. […]
Readings of remaining activity at 30 µM for the listed compounds
Lab book: enter the figure in %, no units written.

>>> observedvalue("[2H]C([2H])([2H])C(=O)Nc1cccc(-c2ccc(N[C@H]3C[C@@H]4CN(CC5CCOCC5)C[C@@H]4C3)nn2)c1 [Compound A61]")
3
>>> observedvalue("O=C(Nc1cccc(-c2ccc(N[C@H]3C[C@@H]4CN(CC5CCOCC5)C[C@@H]4C3)nn2)c1)C1CC1 [Compound A30]")
3

Now examine the next entry.
The recorded remaining activity at 30 µM for entry [2H]C([2H])([2H])NC(=O)c1ccc(-c2ccc(N[C@H]3C[C@@H]4CN(CC5CCOCC5)C[C@@H]4C3)nn2)cc1 (single isomer, unassigned) [Compound A54] equals 3
